Values compiled from patent US8524765B2.

System: store-operated calcium entry in RBL-2H3 cells
Assay: Fluorescence (FLUO-4/FLIPR384) store-operated calcium entry screening assay
Type: cell-based, rat
Conditions: Rattus norvegicus; Up slope parameter; RBL-2H3 cells
Strictly below 1 µM in IC50: true. Otherwise: false.

INSERT INTO results (sample_smiles, qualitative_label) VALUES
  ('O=C(Nc1scc(-c2ccc(Cl)c(Cl)c2)c1C(=O)O)c1ccc(F)cc1', 'false'),
  ('O=C(Nc1scc(-c2ccc(F)cc2)c1C(=O)O)c1ccc(Cl)cc1', 'false'),
  ('O=C(Nc1scc(-c2ccc(Br)cc2)c1C(=O)O)c1ccc(Cl)cc1', 'false'),
  ('Cc1ccc(-c2csc(NC(=O)c3cccc(C)c3)c2C(=O)O)cc1', 'false');

**Query** Does the reported IC50 of the following compound sit strictly below 1 µM? O=C(Nc1scc(-c2ccc(Br)cc2)c1C(=O)O)c1cccc(F)c1
**Result** true

**Query** Another compound: Cc1ccc(-c2csc(NC(=O)c3ccc(Br)cc3)c2C(=O)O)cc1
**Result** true

**Query** Another compound: O=C(Nc1scc(-c2cccc(Cl)c2)c1C(=O)O)c1ccc(Br)cc1
**Result** false
